From: patent US20080161232A1

molecular target: human C5aR(CD88) (Homo sapiens, UniProt P21730); construct: expressed in transfected cells; host or cells: rat basophilic leukemia cells (RBL); assay: Determination of the IC50 value in an enzyme release assay (functional assay, antagonistic activity); format: cell-based; conditions: antagonistic activity; IC50 group in enzyme release assay, RBL cells expressing human C5aR(CD88); read-out: activity (group)
Sequence (P21730 whole entry): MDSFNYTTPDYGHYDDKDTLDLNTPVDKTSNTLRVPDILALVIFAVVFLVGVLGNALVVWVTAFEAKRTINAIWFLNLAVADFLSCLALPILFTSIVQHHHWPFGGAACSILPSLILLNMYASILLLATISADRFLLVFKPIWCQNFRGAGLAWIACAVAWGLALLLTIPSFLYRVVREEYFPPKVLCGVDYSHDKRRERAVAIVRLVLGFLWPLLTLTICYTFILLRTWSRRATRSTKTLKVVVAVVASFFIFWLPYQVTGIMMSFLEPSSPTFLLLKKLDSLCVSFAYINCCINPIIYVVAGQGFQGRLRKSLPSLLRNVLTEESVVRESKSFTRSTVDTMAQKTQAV
pIC50: −log10 of the molar value. Starred links: 1 amine or outer side, 2 acyl side, 3 side chain; linkers in the order of their positions; H or OH if unused. Positions of bridges follow the written chain, without caps; N, C: chain ends. Non-standard residues stand in square brackets, D forms with d. Residues, ends and D or L forms follow the SMILES beside them. *: point of attachment. N(3,4-(MeO)2phenethyl)Gly = COc1ccc(CCNCC(=O)O)cc1OC; Phe(3-Cl) = N[C@@H](Cc1cccc(Cl)c1)C(=O)O; Phe(3-F) = N[C@@H](Cc1cccc(F)c1)C(=O)O; Phe(4-F) = N[C@@H](Cc1ccc(F)cc1)C(=O)O; Bta = N[C@@H](Cc1csc2ccccc12)C(=O)O; Hyp = O=C(O)[C@@H]1C[C@@H](O)CN1; d(hLeu) = CC(C)CC[C@@H](N)C(=O)O; dCha = N[C@H](CC1CCCCC1)C(=O)O; dChg = N[C@@H](C(=O)O)C1CCCCC1; Nle = CCCC[C@H](N)C(=O)O; Orn = NCCC[C@H](N)C(=O)O; CO = O=C([*:1])[*:2]; NHPh = c1ccc(N*)cc1
metric: pIC50

Lookup result for NCCC[C@H](NC(=O)[C@H](Cc1ccccc1)NC(=O)Nc1ccccc1)C(=O)N1CCC[C@H]1C(=O)N[C@H](CC1CCCCC1)C(=O)N[C@@H](Cc1c[nH]c2ccccc12)C(=O)N[C@@H](Cc1ccccc1)C(N)=O [Compound 85, Ph-NH—CO-Phe-Orn-Pro-cha-Trp-Phe-NH2] ({NHPh-CO}-F[Orn]P[dCha]WF-NH2) ; measured pIC50: 6.70 to 7.30

Lookup result for CC(=O)N[C@@H](Cc1ccccc1)C(=O)N[C@H]1CCCNC(=O)[C@H](CCC/N=C(/N)N[N+](=O)[O-])NC(=O)[C@H](Cc2c[nH]c3ccccc23)NC(=O)[C@@H](CC2CCCCC2)NC(=O)[C@@H]2CCCN2C1=O ; measured pIC50: 5.70 to 6.70

Lookup result for CC(=O)N[C@@H](Cc1ccccc1)C(=O)N[C@@H](CCCN)C(=O)N1CCC[C@H]1C(=O)N[C@@H](C(=O)N[C@@H](Cc1c[nH]c2ccccc12)C(=O)N[C@@H](Cc1ccccc1)C(=O)O)C1CCCCC1 [Compound 118, Ac-Phe-Orn-Pro-chg-Trp-Phe-OH] (Ac-F[Orn]P[dChg]WF-OH) ; measured pIC50: 5.70 to 6.70

Lookup result for COc1ccc(CCN(CC(=O)N[C@H](CC2CCCCC2)C(=O)N[C@@H](Cc2csc3ccccc23)C(=O)N[C@@H](Cc2ccccc2)C(N)=O)C(=O)[C@H](CCCN)NC(=O)[C@H](Cc2ccccc2)NC(C)=O)cc1OC [Compound 242, Ac-Phe-Orn-G31-cha-Bta-Phe-NH2] (Ac-F[Orn][N(3,4-(MeO)2phenethyl)Gly][dCha][Bta]F-NH2) ; measured pIC50: 6.70 to 7.30

Lookup result for CC(C)CC[C@H]1NC(=O)[C@@H]2CCCN2C(=O)[C@@H](NC(=O)[C@@H](N)Cc2ccccc2)CCCNC(=O)[C@H](Cc2ccccc2)NC(=O)[C@H](Cc2cccc(Cl)c2)NC1=O [Compound 377, H-Phe-[Orn-Pro-hle-Mcf-Phe]] (H-F[Orn]P[d(hLeu)][Phe(3-Cl)]F; lactam 2-C) ; measured pIC50: 7.30 to 7.70

Lookup result for CC(=O)N[C@@H](Cc1ccccc1)C(=O)N[C@@H](CCCN)C(=O)N1CCC[C@H]1C(=O)N[C@H](CCC(C)C)C(=O)N[C@@H](Cc1cccc(F)c1)C(=O)N[C@@H](Cc1ccccc1)C(N)=O [Compound 292, Ac-Phe-Orn-Pro-hle-Mff-Phe-NH2] (Ac-F[Orn]P[d(hLeu)][Phe(3-F)]F-NH2) ; measured pIC50: 6.70 to 7.30

Lookup result for CCCC[C@@H]1NC(=O)[C@H](Cc2ccc(F)cc2)NC(=O)[C@@H](CCC(C)C)NC(=O)[C@@H]2C[C@@H](O)CN2C(=O)[C@@H](NC(=O)[C@H](Cc2ccccc2)NC(C)=O)CCCNC1=O [Compound 179, Ac-Phe-[Orn-Hyp-hle-Pff-Nle]] (Ac-F[Orn][Hyp][d(hLeu)][Phe(4-F)][Nle]; lactam 2-C) ; measured pIC50: 6.70 to 7.30
